Measured TGI, listed per entry.
System: SF-539 CNS
Assay: NCI tumour cell line growth inhibition, 48 h

# COMPOUND, TGI
data = [
    ("O=c1[nH]nc(Cc2c[nH]c3ccccc23)o1", "> 100 µM"),
    ("O=c1c2cc3c(=O)n4c(cc(-c5ccccc5)c5cc(Cl)ccc54)nc3cc2nc2cc(-c3ccccc3)c3cc(Cl)ccc3n12", "> 100 µM"),
    ("CC(C)=CCC[C@](C)(O)[C@H]1CC[C@]2(C)[C@@H]1CC[C@@H]1[C@@]3(C)CC/C(=N/O)C(C)(C)[C@@H]3CC[C@]12C", "> 100 µM"),
    ("O=c1ncc(F)cn1C1OC(CO)C(O)C1O (stereo unspecified)", "> 88 µM"),
    ("COC(=O)c1ccc(N=NN(C)COc2ccc(Br)cc2)cc1", "> 100 µM"),
    ("CN(/N=C/c1cccc2cccnc12)c1ccc(Cl)cc1[N+](=O)[O-]", "> 100 µM"),
    ("Nc1nnnn1CCO", "> 100 µM"),
    ("COC1C(O)C(n2ncc3c(SC)nc(SC)nc32)OC1C(O)CO (stereo unspecified)", "> 100 µM"),
    ("C/C(CC(O)(/C=N/O)c1ccccc1)=N/O (stereo unspecified)", "> 100 µM"),
    ("CC(=O)NC1(c2cc3ccccc3s2)CCCCCC1", "> 100 µM"),
    ("O=[P+](O)c1ccsc1", "> 100 µM"),
    ("CC(C)NC(=O)N(Nc1ccccc1)C(C)(C)C", "> 100 µM"),
    ("COc1ccc(CCCNC(=O)c2cc(OC)c(OC)cc2CCO)cc1OC", "> 100 µM"),
    ("COC(=O)C1(C#N)C(C)(C)N=C(c2ccccc2)C12CCCCC2 (stereo unspecified)", "> 100 µM"),
    ("COc1cc(/C=N/n2c(-c3ccccc3)nn(C(C)=O)c2=O)cc(OC)c1OC", "8.54 µM"),
    ("NCCCCCCCn1c2c(c3ccccc3c1=O)C(=O)c1ccccc1-2", "3.09 µM"),
    ("CC[C@@]1(C)CCC2c3ccc(O)cc3CC[C@H]2C1C (stereo partly specified)", "35.4 µM"),
    ("Oc1ccc(C(c2ccc(O)cc2)c2ccc(O)cc2)cc1", "46 µM"),
    ("Cc1nc2ccccc2c(/C=C/c2ccc(Cl)cc2)c1C(=O)/C=C/c1ccc(C(F)(F)F)cc1", "0.636 µM"),
    ("C=C1CCC2C3(C)COC(c4ccccc4)OC3CCC2(C)C1/C=C/C1=CCOC1=O (stereo unspecified)", "21.2 µM"),
    ("CCN(CC)c1ccc(C(O)C2=CC(=O)c3ccccc3C2=O)cc1 (stereo unspecified)", "4.18 µM"),
    ("O=C(NCCCO)c1cc(Cl)ccc1O", "17.5 µM"),
    ("CN(Cc1ccccc1)c1ccc(CO)c(Cl)c1", "> 100 µM"),
    ("CC(=O)OCC1OC(n2c(-c3ccccc3)c(C(C)=O)c(-c3cccc4ccccc34)c(C#N)c2=S)C(OC(C)=O)C(OC(C)=O)C1OC(C)=O (stereo unspecified)", "> 100 µM"),
    ("O=c1[nH]nc(-c2ccccc2)n1/N=C/c1cccs1", "> 100 µM"),
    ("C[n+]1c2cc(N)ccc2cc2ccc(N)cc21", "3.69 µM [middle of 4 runs]"),
    ("Cc1nnc(-c2cccc(-c3ccc(C(=O)NCC4CC4)cc3)c2)o1", "> 25 µM"),
    ("O=[N+]([O-])C(=C(N1CCOCC1)N1CCOCC1)/C(Cl)=C(\\Cl)Br", "57.9 µM"),
    ("NCCOCCOCCNc1nc(-c2ccccc2)nc(N2CCN(c3ccccn3)CC2)n1", "33.1 µM"),
    ("O=C1c2ccccc2-c2nnc3c(c21)-c1ccccc1C3", "> 100 µM"),
    ("CC(C)=CC(Cc1ccccc1)S(=O)(=O)c1nc2ccccc2s1 (stereo unspecified)", "30.8 µM"),
]

###

Tested on: NCI-H226 lung
Experiment: NCI tumour cell line growth inhibition, 48 h
Measured TGI, listed per entry.
READOUT_KIND: TGI

# COMPOUND, RESULT_VALUE
rows = [
    ("C/C1=C/C(=O)O[C@@H]2C[C@@H](CC[C@H](C)/C=C\\C=C\\CC1)O[C@@](O)([C@@H]1CSC(=O)N1)C2", "> 2.9 µM"),
    ("CSc1nc(NC2OC(COC(C)=O)C(OC(C)=O)C(OC(C)=O)C2OC(C)=O)c2c(n1)OCC2=O (stereo unspecified)", "> 100 µM"),
    ("C=C1CCC2C3(C)COC(c4ccccc4)OC3CCC2(C)C1/C=C/C1=CCOC1=O (stereo unspecified)", "13.5 µM"),
    ("C/C(=N\\NS(=O)(=O)c1ccc(C)cc1)P(=O)(O)O", "> 100 µM"),
    ("O=C(CN1CCOCC1)c1ccc2c(c1)oc(=O)n2CCN1CCOCC1", "> 100 µM"),
    ("NC(=O)Cc1nc2c(N)ncnc2n1C1OC(CO)C(O)C1O (stereo unspecified)", "> 100 µM"),
    ("Nc1nnnn1CCO", "> 100 µM"),
    ("CCOC(=O)C1=CCOc2cc(N(C)C)ccc21", "> 100 µM"),
    ("CCOC(=O)C1c2[nH]c3ccccc3c2CCN1C(=O)c1ccc(OC)o1 (stereo unspecified)", "> 10 µM"),
    ("CC(=O)NC1(c2cc3ccccc3s2)CCCCCC1", "> 100 µM"),
    ("OC(c1ccc(C(F)(F)F)cc1)C(F)(F)c1nc2ccccc2o1 (stereo unspecified)", "> 100 µM"),
    ("O=C(O)CCSCc1ccccc1", "> 100 µM"),
    ("Oc1ccc(C(c2ccc(O)cc2)c2ccc(O)cc2)cc1", "67.3 µM"),
    ("COc1ccc(/C=C2\\CCS(=O)(=O)c3ccccc3C2=O)cc1", "62.8 µM"),
    ("Cc1nnc(-c2cccc(-c3ccc(C(=O)NCC4CC4)cc3)c2)o1", "> 25 µM"),
    ("c1ccc(CN2COc3c(ccc4c3OCN(Cc3ccccc3)C4)C2)cc1", "5.65 µM"),
]

###

Measured TGI, listed per entry.
System: CAKI-1 renal
Experiment: NCI tumour cell line growth inhibition, 48 h

# COMPOUND, TGI
data = [
    ("O=C(c1ccccc1)C1OC12C(=O)Nc1c(Cl)cc(Cl)cc12 (configuration not stated)", "> 78 µM"),
    ("Cn1c2c(c3ccc([N+](=O)[O-])cc3c1=O)C(=O)c1ccccc1-2", "> 100 µM"),
    ("C[C@]12CC/C(=N\\O)C=C1CC[C@@H]1C2CC[C@@]2(C)C1CC[C@@H]2OC1CCCCO1 (some centres not stated)", "> 10 µM"),
    ("O=C(O)CCC(N=Cc1nc(-c2ccccc2)oc1O)C(=O)O (configuration not stated)", "> 100 µM"),
    ("NCCCCCCCn1c2c(c3ccccc3c1=O)C(=O)c1ccccc1-2", "5.25 µM"),
    ("CN(Cc1ccccc1)c1ccc(CO)c(Cl)c1", "50.9 µM"),
    ("CCOC(=O)C1(C(=O)OCC)OC(C)=NC1(C(=O)OC)C(=O)OC", "> 100 µM"),
    ("CCN(CC)CCCNCc1cc(-c2ccccc2)nc2ccccc12", "> 100 µM"),
    ("O=C(CCN1CCN(c2ccccc2)CC1)N1CCc2c([nH]c3ccccc23)C1c1cccnc1 (configuration not stated)", "33.5 µM"),
    ("COc1ccc2c(=O)cc(C(Cl)(Cl)Cl)oc2c1", "14.6 µM"),
    ("C[C@@]12CCC[C@@](C)(C(=O)O)C1CC[C@]13C[C@@](O)(CO)[C@](O)(CCC12)C3 (some centres not stated)", "> 100 µM"),
    ("O=c1c2cc3c(=O)n4c(cc(-c5ccccc5)c5cc(Cl)ccc54)nc3cc2nc2cc(-c3ccccc3)c3cc(Cl)ccc3n12", "> 100 µM"),
    ("CC[C@@]1(C)CCC2c3ccc(O)cc3CC[C@H]2C1C (some centres not stated)", "35.7 µM"),
    ("CNC(=O)c1ccccc1Nc1nc(Nc2cc(OC)c(OC)c(OC)c2)ncc1Br", "0.275 µM"),
    ("Cn1cnc([N+](=O)[O-])c1Sc1nccn1-c1cccc2ccccc12", "> 100 µM"),
    ("Cc1csc(/C=C/C(=O)c2nnn(-c3ccnc4c(C(F)(F)F)cccc34)c2C)c1", "> 100 µM"),
    ("CCN(CC)CC(O)CNc1c2ccc([N+](=O)[O-])cc2nc2cc(OC)c(OC)cc12 (configuration not stated)", "16.6 µM"),
    ("NCC1OC(n2cnc3c(N)ncnc32)CC1O (configuration not stated)", "> 100 µM"),
    ("Cc1ccc(O)c(C2=CC(c3cccc(Cl)c3)SC(N)=N2)c1 (configuration not stated)", "> 100 µM"),
    ("S=C(Nc1ccc(-c2nc3ccccc3[nH]2)cc1)Nc1ccc(-c2nc3ccccc3[nH]2)cc1", "> 100 µM"),
    ("C=CCN(C(=O)OC(C)(C)C)[C@H](C)C(=O)N[C@@H](C)C(=O)OC", "> 100 µM"),
    ("O=C1c2ccccc2-c2nnc3c(c21)-c1ccccc1C3", "> 100 µM"),
    ("CC(C)O/N=C/c1cc(NC(=S)OC(C)C)ccc1Cl", "> 84.7 µM"),
    ("CC(C)N=C(N)NC#N", "> 100 µM"),
    ("O=c1[nH]nc(Cc2c[nH]c3ccccc23)o1", "> 100 µM"),
    ("Cc1ccc(S(=O)(=O)Oc2nc3ccccc3nc2OS(=O)(=O)c2ccc(C)cc2)cc1", "82.4 µM"),
    ("Cc1cccc(C)c1NC(=O)C1C(=O)N(c2c(C)cccc2C)C(=O)/C1=N\\N (configuration not stated)", "> 100 µM"),
]

The measured values listed here are drawn from PubChem BioAssay (NCI).
